- method_notes: Cycloheximide Counterscreen for Small Molecule Inhibitors of Shiga Toxin; also: read at 38.3 µM for the half of the compounds with a filed dose; 0% is about no effect
- condition_description: cell reporter, cycloheximide protein synthesis inhibition counterscreen; hits give high values
About 37,000 (12%) of roughly 300,000 compounds were called active. The full list was thinned out, with actives kept by preference.
For each of the compounds below, state its max response.
API: value field is a number in %; no unit string.

Q) Quick one: max response of Cc1ccc(S(=O)(=O)N2CCN(C)CC2)cc1 ?
A) 1.47

Q) Next compound: CC(=O)c1cccc(NC(=O)CN2C(=O)c3cccnc3Oc3ccc(Cl)cc32)c1
A) 8.12

Q) Now the compound Cc1cc(S(=O)(=O)NC2CCCCC2)ccc1OCC(=O)NCc1cccnc1
A) -2.89

Q) How about COc1ccc(-c2cn3ccc(C)cc3n2)cc1 ?
A) -1.85

Q) Same thing, different compound: CC(=O)N1c2ccc(S(=O)(=O)N3CCCC(C(=O)NCc4ccc(Cl)cc4)C3)cc2CC1C (stereo unspecified)
A) 10.9

Q) Same for COc1ccc(C2CC(=O)NC(=O)C2)cc1
A) 5.71

---

- method_notes: Cycloheximide Counterscreen for Small Molecule Inhibitors of Shiga Toxin; also: read at 38.3 µM for the half of the compounds with a filed dose; 0% is about no effect
- condition_description: cell reporter, cycloheximide protein synthesis inhibition counterscreen
Among all 300,000 compounds or so, about 37,000 (12%) were called active. Rule as the data show it: active = max response mostly above about 13% (no sharp cut-off); inactive = mostly below about 14%. The list comes from a sample in which actives are over-represented; it also holds close analogues and randomly drawn compounds.
Just give me one of these, please: active, inactive

Q) Hello, I am checking results. What call was entered for Cc1c([N+](=O)[O-])c(N)nn1C ?
A) inactive

Q) Cool, now O=C(c1ccc2c(c1)N(Cc1ccc(F)cc1)C(=O)c1ccccc1S2(=O)=O)N1CCN(c2ccccn2)CC1
A) inactive

Q) What do you have for CN(C)c1ccc(C(CNC(=O)c2ccc(F)cc2)c2c[nH]c3ccccc23)cc1 (stereo unspecified) ?
A) inactive

Q) Also need O=C(Nc1ccon1)c1sc2ccccc2c1Cl , thanks.
A) active

Q) Again, but for CN1CCc2ccccc2C1Cc1ccccc1NC(=O)c1sc2ccccc2c1Cl (stereo unspecified)
A) inactive

Q) CC(=O)NC1CCN(CC(=O)Nc2nccs2)CC1 , same question.
A) inactive

Q) Further, for CCc1cc(=O)oc2cc(C)cc(OCC(=O)N3CCC[C@@H]3C(=O)O)c12 ?
A) inactive

Q) And the next one, Clc1ccc(C2=CSC3=Nc4cccc5cccc(c45)N23)cc1 ?
A) active

Q) Try this compound too: CC1CCCN(CCOCCOc2ccccc2-c2ccccc2)C1 (stereo unspecified)
A) inactive

Q) Another compound to check: COc1ccc(-c2nc3c(s2)CCc2onc(-c4ccc(OC)cc4)c2-3)cc1
A) inactive

Q) Input O=C(Nc1ccon1)c1cccc(Cl)c1
A) inactive

---

- method_notes: Cycloheximide Counterscreen for Small Molecule Inhibitors of Shiga Toxin; also: read at 38.3 µM for the half of the compounds with a filed dose; 0% is about no effect
- condition_description: cell reporter, cycloheximide protein synthesis inhibition counterscreen; hits give high values
About 37,000 (12%) of roughly 300,000 compounds were called active. The full list was thinned out, with actives kept by preference.
I would appreciate it if you labelled entries Condition met when max response is 10% or higher, otherwise Condition not met.

Q) Reported max response reaches at least 10% for COC(=O)CSc1nccc(-c2cccs2)n1 ?
A) Condition met

Q) Again, but for CC(C)c1ccc(NC(=S)NNc2ccc(Cl)c(C(=O)O)c2)cc1
A) Condition met

Q) Request: O=C(O)c1cc([N+](=O)[O-])c(Nc2cccc3ccccc23)c([N+](=O)[O-])c1
A) Condition not met

Q) Quick one: C/C(=N\NC(N)=S)c1cccnc1
A) Condition not met

Q) Would you mind doing Cc1cccc(NC(=O)c2ccc3ccccc3n2)n1 as well?
A) Condition met

Q) Next entry: O=C(Nc1cccc(NC(=O)c2ccccc2[N+](=O)[O-])c1)c1ccccc1Cl
A) Condition not met

Q) Then O=C(NC(=S)Nc1ccc(Cl)c(C(=O)O)c1)c1cncc(Br)c1 ?
A) Condition not met

Q) Input O=C(CNC(=O)OCc1ccccc1)Oc1cc2oc(=O)cc(-c3ccccc3)c2cc1Cl
A) Condition not met

Q) Then what about the compound O=C(Nc1ccc2nccnc2c1)c1ccco1 ?
A) Condition met

Q) How about this compound: Cc1ccc(C(=O)COc2cccc(NC(=O)c3ccco3)c2)cc1
A) Condition not met

Q) Please give the result for COCC(=O)N1CCc2ccc(NC(=O)c3ccccc3Cl)cc2C1 too.
A) Condition not met

Q) Repeat with COc1ccc(CSc2nnnn2-c2ccc(O)cc2)cc1F
A) Condition not met

Q) Moving on to the next compound: Cc1cc(C(=O)NC2CCN(Cc3ccccc3)CC2)n[nH]1
A) Condition not met

Q) Next up: O=C(CCCN1CCc2[nH]c3ccc(F)cc3c2C1)c1ccc(F)cc1
A) Condition not met

Q) Please do the same for Cc1cccc(NC(=O)c2cccnc2Cl)n1 as well.
A) Condition met

Q) What would you report for CC1CCc2sc(C(=O)N/N=C/C3CCCCC3)cc2C1 (configuration not stated) ?
A) Condition not met

Q) Also need COC(=O)CN1C(=O)[C@H]2[C@@H](/C=C/c3ccccc3)N3C(=O)CN(CC4CC4)C(=O)[C@@]3(Cc3ccccc3)[C@H]2C1=O , thanks.
A) Condition not met

Q) Item: C/C(=N\NC(=O)c1cc2c(s1)CCC(C)C2)c1cccnc1 (configuration not stated)
A) Condition met

Q) And O=C(COc1ccc2c3c(c(=O)oc2c1)CCC3)NC1CCCCC1 ?
A) Condition not met

Q) Same again, this time with O=C(Nc1c(-c2ccccc2)nc2c(Br)cc(Br)cn12)c1ccco1
A) Condition met

Q) Queued: Cc1cccc(NC(=O)Nc2cccc(Oc3c(F)c(F)c(F)c(F)c3F)c2)c1
A) Condition not met

Q) Please do the same for N#Cc1cccc(CN2CCC(=O)N(CCO)CC2)c1 as well.
A) Condition not met

Q) Check CC(C)NC(=O)N1CCN(c2ccncc2S(=O)(=O)N2CCCCC2)CC1 too.
A) Condition not met

Q) Please do the same for O=C(Nc1cccc(-c2nc3ncccc3o2)c1)c1ccco1 as well.
A) Condition met

Q) // next record C/C(=N\NC(=O)c1ccc2ccccc2c1)c1cccnc1
A) Condition met

Q) Also check C/C(=N\NC(=O)c1cccc([N+](=O)[O-])c1)c1cccnc1
A) Condition met

Q) Thanks! And COc1ccc(NCCc2ccccn2)cc1 ?
A) Condition met

Q) # iterate: COC(=O)Cn1cnc2scc(-c3ccc(C)c(C)c3)c2c1=O
A) Condition not met

Q) Another compound: c1ccc(Nc2nc(-c3ccncc3)cs2)nc1
A) Condition met

Q) Input Cc1ccc(C)c(NC(=S)NNC(=S)Nc2ccc(C(C)C)cc2)c1
A) Condition met

Q) And what about the compound Cc1c(C)c(C)c(S(=O)(=O)NCCc2ccccn2)c(C)c1C ?
A) Condition not met

Q) Here is the next compound: COCc1c(C(=O)N/N=C(\C)c2ccncc2)nnn1-c1nonc1N
A) Condition not met

Q) Same thing, different compound: COc1ccccc1CNS(=O)(=O)CC12CCC(CC1=O)C2(C)C (configuration not stated)
A) Condition not met

Q) Also check NC(=O)COc1ccc2c3c(c(=O)oc2c1)CCCCC3
A) Condition met

Q) Now this one: C/C(=N\NC(=O)c1cc(-c2ccc(O)cc2)nc2ccccc12)c1cccnc1
A) Condition met

Q) Now the compound CC(=O)c1sc(NC(=O)c2ccc(C)cc2)nc1C
A) Condition met

Q) Do the same for CC(=O)Nc1ccc(C(=O)Nc2nc(-c3cc(C)n(Cc4ccccc4)c3C)cs2)cc1 please
A) Condition not met

Q) Check Cc1cc(-c2nnc(SCC(=O)Nc3ccc(F)cc3)n2N)n[nH]1 too.
A) Condition not met

Q) Try NC(=O)C1CCN(C(=O)COc2ccc3c4c(c(=O)oc3c2)CCC4)CC1 next.
A) Condition not met

Q) Another compound to check: COC(=O)c1cc(-c2cccs2)nc2ccccc12
A) Condition not met

Q) Please do the same for COc1ccc(CCNC(=S)NC(=O)/C=C/c2ccc(C)cc2)cc1OC as well.
A) Condition not met

Q) # iterate: Cc1ccc(C)c(NC(=S)NCC(c2cccnc2)N2CCOCC2)c1 (configuration not stated)
A) Condition not met

Q) Request: C/C(=N\NC(N)=S)c1ccncc1
A) Condition not met

Q) What do you get for Cc1ccc(CN2CCNC(=O)C2CC(=O)NCc2csc(C(C)C)n2)cc1 (configuration not stated) ?
A) Condition not met

Q) Same question, COc1ccc2cc(S(=O)(=O)Nc3ccccn3)ccc2c1 this time
A) Condition not met

Q) Repeat for the following compound: c1ccc(NCc2cccc3ccccc23)nc1
A) Condition not met

---

Please respond with reported max response for every item in the list.
- method_notes: Cycloheximide Counterscreen for Small Molecule Inhibitors of Shiga Toxin; also: read at 38.3 µM for the half of the compounds with a filed dose; 0% is about no effect
- condition_description: cell reporter, cycloheximide protein synthesis inhibition counterscreen; hits give high values
The campaign covered roughly 300,000 compounds. About 37,000 (12%) were called active. The entries come from a sample that favours actives as a whole.
Enter your answer as a number in %; do not include the unit.

Q) Looking for the measured max response of Clc1ccc(C2[C@H]3CN(CC4CCCCC4)[C@H](c4ccccc4)C34CC2(c2cccnc2)C4)cn1 (stereo partly specified) , can you help?
A) -6.35

Q) Record: O=C(COc1ccc(Cl)cc1Cl)N/N=C/c1ccccn1
A) 13.4

Q) Entry Nc1ccc(N=Nc2ccccc2Cl)c(N)n1 please
A) 25.9

Q) What do you get for Cn1c(=O)c2sccc2n(Cc2ccc(Br)cc2)c1=O ?
A) -2.03

Q) Also Cc1cc(NC(=O)CCC(=O)N(CC(=O)NC2CCCC2)c2ccc(F)cc2)no1 , if possible.
A) -7.13

Q) Now consider Fc1ccc(-c2ccc(-c3nn4c(-c5ccco5)nnc4s3)o2)cc1 and answer again.
A) 12.8

Q) Input COc1ccc(N2CCC(N3CCN(C)C(CCO)C3)CC2)cc1 (stereo unspecified)
A) -1.24

Q) Thanks! And CC(C)[C@H](NC(=O)N1CC(=O)Nc2ccccc21)C(=O)N[C@@H](Cc1c[nH]c2ccccc12)C(=O)O ?
A) -2.21

Q) Can you check FC(F)(F)c1nnc2sc(-c3ccco3)nn12 next?
A) -1.25

Q) Repeat for the following molecule: CN1CCN(c2ccc([N+](=O)[O-])c(Sc3nc4ccccc4[nH]3)c2)CC1
A) -2.61

Q) Now consider COc1cccc(NC(=O)c2cc(S(=O)(=O)N3CCc4ccccc43)cn2C)c1 and answer again.
A) -2.59
